test system: MS2 coat protein; assay: apparent KD of MS2 coat protein; designed switch direction (-1 OFF switch, 1 ON switch): 1; higher = weaker reporter binding; conditions: input ligand: microRNA oligo, concentration not stated
# thresholds on apparent KD of MS2 coat protein define classes: lower range (below 40 nM), middle range (40 nM to below 100 nM), upper range (100 nM or more)

Biosequence	System tested	Group
GGAGCCGGCCUAGGAUAUUUCAUAGAAAAACAUGAGGAUCACCCAUGUAGGCCAGAAGGCCUUGGGAAGAAGGAGGUCGGCUCC [Loop Effect - G25] (Eterna round: R96, puzzle: Same State NG 2)	MS2 coat protein	lower range
GUAGCAUACCGAGGAUAUUCAAAUUAACAUGAGGAUCACCCAUGUAGGCCACAUUAGUGGCCUUGGGAGAAGGCGGAAUGCUAC [Xeonanis - 20 Mod39] (Eterna round: R96, puzzle: Same State NG 2)	MS2 coat protein	middle range
AAAACAUGAGGAUCACCCAUGUGUAAAAGAUACCGGAUGGUGCAGGAUAUAUCCCAUUAAAGUGGAUAGAAGGGUGGCAUCAAG [Eternabot solution 46] (Eterna round: R96, puzzle: Same State NG 3)	MS2 coat protein	lower range
CCAAUGUACAAUUUAGAUCUACAUGAGGAUCACCCAUGUACAGAGGAUAUCAGCUCGUUUAGAGCUGAGAAGGCUGAAUUAAUU [SSNG3/3-A3] (Eterna round: R96, puzzle: Same State NG 3)	MS2 coat protein	upper range
CGGGUGGUUCUAGGAUAUCUAGGAUAUGGACGAGGAUUACCCGAGCAGCAUCAGCGCACCAGAGGAGAGAAGGAGAGUCAUGCG [pwkr ssNG2 2F5 2FMN.9] (Eterna round: R96, puzzle: Same State NG 2)	MS2 coat protein	middle range
GAGCCAGUCCGAGGAUAUUCACAUGAGGAUCACCCAUGUAGGCUCAGAAAAGAAAAGGAGCCUUGGGAGAAGGCGGACUGGCUC [Xeonanisa<<8] (Eterna round: R96, puzzle: Same State NG 2)	MS2 coat protein	lower range
UUCACCUUAUUUUACAUGAGGAUCACCCAUGUUUUUUUUACGUAGGAUAUCGAUGCUUGUUUAUUCGAGAAGGACGAUGUAAGU [JR_SSND3_Sub053] (Eterna round: R96, puzzle: Same State NG 3)	MS2 coat protein	lower range
GCGAGCGUACUUGCAGACAUGAGGAUCACCCAUGUAACUGGACAGGAUAUGGUACCGUUUCGGUACCAGAAGGGUUUAUCAUGU [JL SSNG3 3.55] (Eterna round: R96, puzzle: Same State NG 3)	MS2 coat protein	upper range
UGUUUGUUGUGAGGAUAUACAUACACCUUACAUGAGGAUCACCCAUGUUGUUACCUUGAUAGUUAGUAGAAGGCACUUGGUUAU [JR_SSNG2_Sub046] (Eterna round: R96, puzzle: Same State NG 2)	MS2 coat protein	upper range
AUUAUACAUGAGGAUCACCCAUGUAAUUAAUCUAGUAAGAUCUAGGAUAUCAGCUCGAUUAGAGCUGAGAAGGAGAUCACAUGU [SSNG3/20-D2] (Eterna round: R96, puzzle: Same State NG 3)	MS2 coat protein	middle range
CACCAGAGAGCAGGAUAUGGGCCACGGCCUAAGGGCUGUGAACUCACAUGAGGAUCACCCAUGUCCCAGAAGGGCUCCUGGCUA [Getiised] (Eterna round: R96, puzzle: Same State NG 2)	MS2 coat protein	upper range
GCUACCAUUGAAGCCAACAUGAGGAUCACCCAUGUAUGUUGGCAGGAUAUCGAUUGCAAAGCGAUCGAGAAGGGCUAAGGUAGC [Mat - Same State NG 3 - JL Mod - D86] (Eterna round: R96, puzzle: Same State NG 3)	MS2 coat protein	middle range
ACUUAGUACAAUUUAGAUCUACAUGAGGAUCACCCAUGUACUGAGGAUAUCAGCUCGAAUAGAGCUGAGAAGGCAGAAGUACUU [SSNG3/8-A1] (Eterna round: R96, puzzle: Same State NG 3)	MS2 coat protein	upper range
CUGAGGAAGAGAGAGGAUAUCCAAAGGAAAACAUGAGGAUCACCCAUGUAAAAGGUAGGAAAUUGGGAGAAGGCUCAAGAGAGAG [salish99-ss2-068] (Eterna round: R96, puzzle: Same State 2)	MS2 coat protein	lower range
UGUUGUAUUACAGGAUAUCUAUAAUUUUUAUUUAGAGAAGGGUAUUCACAUGAGGAUCACCCAUGUAUAUACGAGGAAGUUGUG [JMF's solution 10] (Eterna round: R96, puzzle: Same State NG 1)	MS2 coat protein	lower range
GGAUCAUGACGAGGAUAUGGUACAUGAGGAUCACCCAUGUAUGUACCACGACGGAAACGUCGAAUCCAGAAGGCGUCAUGAUCG [Mat - Same State NG 2 - JL mod - D39] (Eterna round: R96, puzzle: Same State NG 2)	MS2 coat protein	middle range
ACAGAGUGAAGACAGGAUAUUCGCGAUGGCACAUGAGGAUCACCCAUGUUUUGAGCACAUAAACAGAAGAAGGGUUAAAACUCAG [Zadier] (Eterna round: R96, puzzle: Same State 2)	MS2 coat protein	middle range
GGUAGGUUACUACCAGACAUGAGGAUCACCCAUGUAAAUGGGAAGGAUAUGGUACCGUUUCGGUACCAGAAGGUCCUAAGUGAG [JL SSNG3 1.48] (Eterna round: R96, puzzle: Same State NG 3)	MS2 coat protein	upper range
